Test system: NCI-H322M
assay.summary: relative viability (nuclei count vs DMSO), 5 days (fraction); higher = more cells survive
applied.conditions: first compound 5 µM
Criterion: relative viability strictly less than 1. Met: yes. Not met: no.

Field: example entries. Status: answers known.
O=C(O)CCCCC(CCSCc1ccccc1)SCc1ccccc1 (stereo not given) [CPI-613] + CC1(C)CCC(c2ccc(Cl)cc2)=C(CN2CCN(c3ccc(C(=O)NS(=O)(=O)c4ccc(N[C@H](CCN5CCOCC5)CSc5ccccc5)c(S(=O)(=O)C(F)(F)F)c4)cc3)CC2)C1 [Navitoclax] (partner 0.5 µM)    no
O=C(O)CCCCC(CCSCc1ccccc1)SCc1ccccc1 (stereo not given) [CPI-613] + COc1cc2c(Oc3ccc(NC(=O)C4(C(=O)Nc5ccc(F)cc5)CC4)cc3F)ccnc2cc1OCCCN1CCOCC1 [Foretinib] (partner 0.25 µM)    yes
O=C(O)CCCCC(CCSCc1ccccc1)SCc1ccccc1 (stereo not given) [CPI-613] + CS(=O)(=O)N1CCN(Cc2cc3nc(-c4cccc5[nH]ncc45)nc(N4CCOCC4)c3s2)CC1 [Pictilisib] (partner 1 µM)    yes
O=C(O)CCCCC(CCSCc1ccccc1)SCc1ccccc1 (stereo not given) [CPI-613] + C[C@]1(O)C[C@@H](c2nc(-c3ccc4ccc(-c5ccccc5)nc4c3)c3c(N)nccn32)C1 [Linsitinib] (partner 1 µM)    yes

A record lists O=C(O)CCCCC(CCSCc1ccccc1)SCc1ccccc1 (stereo not given) [CPI-613] + CC(C)C[C@H](NC(=O)[C@H](Cc1ccccc1)NC(=O)c1cnccn1)B(O)O [Bortezomib] (partner 0.002 µM) . Is its relative viability below 1?
no

====

Test system: NCI-H1355
assay.summary: relative viability (nuclei count vs DMSO), 5 days (fraction); higher = more cells survive
applied.conditions: first compound 0.04 µM
measurement.label: relative viability
Answers are plain numbers.

Cc1sc2c(c1C)C(c1ccc(Cl)cc1)=N[C@@H](CC(=O)OC(C)(C)C)c1nnc(C)n1-2 [JQ1] + CS(=O)(=O)N1CCN(Cc2cc3nc(-c4cccc5[nH]ncc45)nc(N4CCOCC4)c3s2)CC1 [Pictilisib] (partner 1 µM)    0.429
Cc1sc2c(c1C)C(c1ccc(Cl)cc1)=N[C@@H](CC(=O)OC(C)(C)C)c1nnc(C)n1-2 [JQ1] + CS(=O)(=O)CCNCc1ccc(-c2ccc3ncnc(Nc4ccc(OCc5cccc(F)c5)c(Cl)c4)c3c2)o1 [Lapatinib] (partner 2 µM)    0.967
Cc1sc2c(c1C)C(c1ccc(Cl)cc1)=N[C@@H](CC(=O)OC(C)(C)C)c1nnc(C)n1-2 [JQ1] + CCNC(=O)c1noc(-c2cc(C(C)C)c(O)cc2O)c1-c1ccc(CN2CCOCC2)cc1 [Luminespib] (partner 0.01 µM)    0.715

# evaluate next
Return relative viability for the following compound: Cc1sc2c(c1C)C(c1ccc(Cl)cc1)=N[C@@H](CC(=O)OC(C)(C)C)c1nnc(C)n1-2 [JQ1] + Nc1ncn([C@H]2C[C@H](O)[C@@H](CO)O2)c(=O)n1 [Decitabine] (partner 2 µM)
0.348

====

Exercise: state measured relative viability for each of the molecules provided.
Tested on: NCI-H1915
assay.summary: relative viability (nuclei count vs DMSO), 5 days (fraction); higher = more cells survive
applied.conditions: first compound 0.05 µM
Numbers only.

Solved entries:
Nc1ccn([C@@H]2O[C@H](CO)[C@@H](O)[C@@H]2O)c(=O)n1 [Cytarabine] + NC(=O)Nc1cc(-c2cccc(F)c2)sc1C(=O)N[C@H]1CCCNC1 [AZD7762] (partner 0.2 µM)    0.241
COc1cc2nccc(Oc3ccc(NC(=O)Nc4cc(C)on4)c(Cl)c3)c2cc1OC [Tivozanib] + Nc1nc2[nH]cc(CCc3ccc(C(=O)N[C@@H](CCC(=O)O)C(=O)O)cc3)c2c(=O)[nH]1 [Pemetrexed] (partner 0.2 µM)    0.504
COc1cc2nccc(Oc3ccc(NC(=O)Nc4cc(C)on4)c(Cl)c3)c2cc1OC [Tivozanib] + CC1(C)CCC(c2ccc(Cl)cc2)=C(CN2CCN(c3ccc(C(=O)NS(=O)(=O)c4ccc(N[C@H](CCN5CCOCC5)CSc5ccccc5)c(S(=O)(=O)C(F)(F)F)c4)cc3)CC2)C1 [Navitoclax] (partner 0.5 µM)    0.806
COc1cc2nccc(Oc3ccc(NC(=O)Nc4cc(C)on4)c(Cl)c3)c2cc1OC [Tivozanib] + Cc1nc(Nc2ncc(C(=O)Nc3c(C)cccc3Cl)s2)cc(N2CCN(CCO)CC2)n1 [Dasatinib] (partner 0.075 µM)    0.3

# evaluate next
Return relative viability for the following molecule: Nc1ccn([C@@H]2O[C@H](CO)[C@@H](O)[C@@H]2O)c(=O)n1 [Cytarabine] + CC(C)C[C@H](NC(=O)[C@H](Cc1ccccc1)NC(=O)c1cnccn1)B(O)O [Bortezomib] (partner 0.002 µM)
0.8
